Target or system Peroxisome proliferator-activated receptor delta (Homo sapiens); recorded quantity log10(Ki).
Lab note - Ki converted to log10 from values in nM.

Ask: Provide Peroxisome proliferator-activated receptor delta (Homo sapiens) log10(Ki) reading for `CCCc1c(OCCCCOc2ccc(CC(C)(C)C(=O)O)cc2)ccc2c(-c3ccccc3)noc12` .
Reply: 2.50

---

- Assay Remarks: Bioavailability of compound was determined
- Format: ADME, organism-based
- Test Context: eutheria, in vivo
Readout Label: bioavailability (%)
The response must be a number in % with no trailing unit.

Ask: Input `CCCc1c(OCCCCOc2cccc(CC(=O)O)c2)ccc2c(-c3ccccc3)noc12` , output reported bioavailability.
Reply: 76

---

- Target Or Test System: Peroxisome proliferator-activated receptor delta (Homo sapiens, UniProt Q03181)
- Sequence (Q03181 whole entry): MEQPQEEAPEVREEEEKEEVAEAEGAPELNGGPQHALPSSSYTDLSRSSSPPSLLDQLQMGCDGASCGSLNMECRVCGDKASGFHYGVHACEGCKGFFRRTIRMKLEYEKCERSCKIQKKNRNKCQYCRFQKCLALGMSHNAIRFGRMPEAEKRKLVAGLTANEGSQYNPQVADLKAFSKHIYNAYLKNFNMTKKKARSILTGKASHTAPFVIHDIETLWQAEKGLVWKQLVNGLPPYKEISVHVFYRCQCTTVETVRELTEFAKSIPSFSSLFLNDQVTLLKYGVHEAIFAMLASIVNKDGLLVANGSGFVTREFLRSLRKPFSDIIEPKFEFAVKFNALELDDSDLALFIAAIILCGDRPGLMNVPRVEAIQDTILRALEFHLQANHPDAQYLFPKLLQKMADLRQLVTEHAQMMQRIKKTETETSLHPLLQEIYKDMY
// values below are reported pKi
Reminder that pKi means the negative base-10 logarithm of the concentration expressed in mol/L.

CCCc1c(OCCCOc2ccccc2CCC(=O)O)ccc2c(-c3ccccc3)noc12 ... 5.45
CCCc1c(OCCCOc2ccc(OC(C)C(=O)O)cc2)ccc2c(-c3ccccc3)noc12 (stereo not given) ... 8.34
CCCc1c(OCCCCOc2ccc(OC(C)C(=O)O)cc2)ccc2c(-c3ccccc3)noc12 (stereo not given) ... 6.87
CCCc1c(OCCCOc2cccc(CCC(=O)O)c2)ccc2c(-c3ccccc3)noc12 ... 7.68
CCCc1c(OCCCCOc2cccc(OC(C)(C)C(=O)O)c2)ccc2c(-c3ccccc3)noc12 ... 6.96
CCCc1c(OCCCCOc2ccc(CC(=O)O)cc2)ccc2c(-c3ccccc3)noc12 ... 7.03
CCCc1c(OCCCCOc2cccc(CC(=O)O)c2)ccc2c(-c3ccccc3)noc12 ... 9.52
CCCc1c(OCCCCOc2ccccc2CC(=O)O)ccc2c(-c3ccccc3)noc12 ... 7.33
CCCc1c(OCCCOc2ccc(CC(=O)O)cc2)ccc2c(-c3ccccc3)noc12 ... 8.30

Field: next molecule
Ask: Input `CCCc1c(OCCCCOc2ccc(OC(C)(C)C(=O)O)cc2)ccc2c(-c3ccccc3)noc12` , output reported pKi.
Reply: 7.64

---

// values below are reported log10(EC50)
- Target Or Test System: Peroxisome proliferator-activated receptor delta (Homo sapiens)
- Assay Remarks: Agonistic activity was determined in COS1 cells transfected with GAL 4-PPAR delta receptor
Lab note - EC50 converted to log10 from values in nM.

Worked examples follow.
CCCc1c(OCCCOc2ccc(OCC(=O)O)cc2)ccc2c(-c3ccccc3)noc12 ... 1.20
CCCc1c(OCCCOc2ccc(CC(=O)O)cc2)ccc2c(-c3ccccc3)noc12 ... 2.17
CCCc1c(OCCCOc2ccc(CCCC(=O)O)cc2)ccc2c(-c3ccccc3)noc12 ... 2.26
CCCc1c(OCCCCOc2ccc(CC(C)(C)C(=O)O)cc2)ccc2c(-c3ccccc3)noc12 ... 2.93

Ask: Input `CCCc1c(OCCCSc2ccc(CC(=O)O)cc2Cl)ccc2c(-c3ccccc3)noc12` , output reported log10(EC50).
Reply: 0.48

Ask: Input `CCCc1c(OCCCOc2ccc(/C=C/C(=O)O)cc2)ccc2c(-c3ccccc3)noc12` , output reported log10(EC50).
Reply: 2.17

Ask: Input CCCc1c(OCCCOc2ccc(OC(C)C(=O)O)cc2)ccc2c(-c3ccccc3)noc12 (stereo unspecified) , output reported log10(EC50).
Reply: 1.11

Ask: Input `CCCc1c(OCCCCOc2ccc(OC(C)(C)C(=O)O)cc2)ccc2c(-c3ccccc3)noc12` , output reported log10(EC50).
Reply: 2.24

Ask: Input `CCCc1c(OCCCCOc2cccc(CC(=O)O)c2)ccc2c(-c3ccccc3)noc12` , output reported log10(EC50).
Reply: 1.30

Ask: Input `CCCc1c(OCCCCOc2cccc(C(C)(C)C(=O)O)c2)ccc2c(-c3ccccc3)noc12` , output reported log10(EC50).
Reply: 2.60

Ask: Input `CCCc1c(OCCCCOc2ccc(/C=C/C(=O)O)cc2)ccc2c(-c3ccccc3)noc12` , output reported log10(EC50).
Reply: 2.81
